Recorded inhibition at 0.01 µM, one value per entry.
- tested system: AR protein (Homo sapiens)
- Construct: degradation activity of the compounds disclosed in the present disclosure on AR protein in VCaP cells; host or cells: VCaP
- protocol text: Degradation of AR protein in VCaP cells (Western blot)
- Assay type: cell-based
- condition notes: compound at 10 nM, 8 hours, read-out: Degradation rate of the AR protein in VCaP cells, 10 nM (%)
Field: numeric (%). Do not append units.

Below are worked cases with known answers.
compound	tested system	unit spec	inhibition at 0.01 µM
N#Cc1ccc(O[C@H]2CC[C@H](NC(=O)c3ccc(N4CCC(CO)(CN5CCC6(CC5)COc5c6ccc6c5CN(C5CCC(=O)NC5=O)C6=O)CC4)nn3)CC2)cc1Cl (some centres unmarked)	AR protein (Homo sapiens)	%	67
N#Cc1ccc(O[C@H]2CC[C@H](NC(=O)c3ccc(N4CCC(CC(=O)N5CCC6(CC5)COc5c6ccc6c5CN(C5CCC(=O)NC5=O)C6=O)CC4)nn3)CC2)cc1Cl (some centres unmarked)	AR protein (Homo sapiens)	%	66
COc1cc(O[C@H]2C(C)(C)[C@H](NC(=O)c3ccc(N4CCC(F)(CN5CCC6(CCc7cc8c(cc7O6)C(=O)N(C6CCC(=O)NC6=O)C8=O)CC5)CC4)cc3)C2(C)C)ccc1C#N (some centres unmarked)	AR protein (Homo sapiens)	%	9
COc1cc(O[C@H]2CC[C@H](NC(=O)c3ccc(N4CCC(CN5CCC6(CC5)COc5c6ccc6c5C(=O)N(C5CCC(=O)NC5=O)C6=O)(OC)CC4)nn3)CC2)ccc1C#N (some centres unmarked)	AR protein (Homo sapiens)	%	38
N#Cc1ccc(O[C@H]2CC[C@H](NC(=O)c3ccc(N4CCC(F)(CN5CCC6(CCc7ccc8c(c7O6)CN(C6CCC(=O)NC6=O)C8=O)CC5)CC4)nn3)CC2)cc1Cl (some centres unmarked)	AR protein (Homo sapiens)	%	43

I have this compound here, N#Cc1ccc(O[C@H]2CC[C@H](NC(=O)c3ccc(N4CCC(C#N)(CN5CCC6(CC5)COc5c6ccc6c5C(=O)N(C5CCC(=O)NC5=O)C6=O)CC4)nn3)CC2)cc1Cl (some centres unmarked) , and I need its recorded inhibition at 0.01 µM.
24

I have this compound here, N#Cc1ccc(O[C@H]2CC[C@H](NC(=O)c3ccc(N4CCC(N5CCC6(CCc7cc8c(cc7O6)C(=O)N(C6CCC(=O)NC6=O)C8=O)CC5)C(F)(F)C4)nn3)CC2)cc1Cl (some centres unmarked) , and I need its recorded inhibition at 0.01 µM.
33

I have this compound here, N#Cc1ccc(O[C@H]2CC[C@H](NC(=O)c3ccc(N4CCC(F)(CN5CCC6(CC5)COc5ccc7c(c5C6)C(=O)N(C5CCC(=O)NC5=O)C7)CC4)nn3)CC2)cc1Cl (some centres unmarked) , and I need its recorded inhibition at 0.01 µM.
24

====

Recorded inhibition at 0.1 µM, one value per entry.
- tested system: AR protein (Homo sapiens, UniProt P10275, T878A)
- Construct: degradation activity of the compounds disclosed in the present disclosure on AR protein in LNCaP cells; host or cells: LNCaP FGC
- Sequence (P10275 1-920 T878A): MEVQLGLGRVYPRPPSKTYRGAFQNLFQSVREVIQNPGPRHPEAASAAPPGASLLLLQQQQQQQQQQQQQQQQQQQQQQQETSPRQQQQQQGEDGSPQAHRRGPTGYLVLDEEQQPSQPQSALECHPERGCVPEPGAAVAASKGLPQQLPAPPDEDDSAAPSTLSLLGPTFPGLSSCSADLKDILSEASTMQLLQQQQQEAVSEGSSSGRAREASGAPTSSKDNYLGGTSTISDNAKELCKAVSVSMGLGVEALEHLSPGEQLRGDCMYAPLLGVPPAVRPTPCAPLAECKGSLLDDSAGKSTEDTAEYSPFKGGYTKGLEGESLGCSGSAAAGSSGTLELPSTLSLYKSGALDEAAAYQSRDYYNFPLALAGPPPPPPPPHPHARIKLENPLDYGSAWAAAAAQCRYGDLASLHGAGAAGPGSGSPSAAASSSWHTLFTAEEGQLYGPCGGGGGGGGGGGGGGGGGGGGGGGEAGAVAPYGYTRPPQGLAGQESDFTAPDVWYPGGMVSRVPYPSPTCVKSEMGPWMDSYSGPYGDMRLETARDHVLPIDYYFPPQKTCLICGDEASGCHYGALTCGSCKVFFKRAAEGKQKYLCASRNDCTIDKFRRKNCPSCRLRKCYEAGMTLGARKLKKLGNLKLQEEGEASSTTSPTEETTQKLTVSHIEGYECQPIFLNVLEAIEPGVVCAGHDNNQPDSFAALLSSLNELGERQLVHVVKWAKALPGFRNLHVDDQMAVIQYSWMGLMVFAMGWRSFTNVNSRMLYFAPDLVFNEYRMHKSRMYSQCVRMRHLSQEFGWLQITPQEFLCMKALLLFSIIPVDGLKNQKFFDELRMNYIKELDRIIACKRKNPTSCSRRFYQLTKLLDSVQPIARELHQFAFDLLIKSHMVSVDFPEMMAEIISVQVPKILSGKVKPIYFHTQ
- protocol text: Degradation of AR protein in LNCaP cells (Western blot)
- Type: cell-based
- condition notes: LNCaP cells, compound 100 nM, 8 hours, Western blot grayscale, GAPDH internal reference; read-out: Degradation rates of the AR protein in LNCaP cells, 100 nM (%)
Field: numeric (%). Do not append units.

molecule	measurement type	unit spec	test result
N#Cc1ccc(O[C@H]2CC[C@H](NC(=O)c3ccc(N4CCC(CN5CCC6(CC5)COc5c6ccc6c5CN(C5CCC(=O)NC5=O)C6=O)(C5CC5)CC4)nn3)CC2)cc1Cl (stereo partly drawn) [Compound 238]	inhibition at 0.1 µM	%	61
COc1cc(OC2CCC(NC(=O)c3cnc(N4CCC(C)(CN5CCC6(CC5)COc5c6ccc6c5CN(C5CCC(=O)NC5=O)C6=O)CC4)nc3)CC2)ccc1C#N (stereo not drawn) [Compound 247]	inhibition at 0.1 µM	%	27
CCC1(CN2CCC3(CC2)COc2c3ccc3c2C(=O)N(C2CCC(=O)NC2=O)C3=O)CCN(c2ccc(C(=O)N[C@H]3CC[C@H](Oc4ccc(C#N)c(OC)c4)CC3)nn2)CC1 (stereo partly drawn) [Compound 250]	inhibition at 0.1 µM	%	67
N#Cc1ccc(O[C@H]2CC[C@H](NC(=O)c3ccc(N4CCC(F)(CN5CC6(CCc7ccc8c(c7O6)C(=O)N(C6CCC(=O)NC6=O)C8)C5)CC4)nn3)CC2)cc1Cl (stereo partly drawn) [Compound 139]	inhibition at 0.1 µM	%	11

I have this molecule here, N#Cc1ccc(O[C@H]2CC[C@H](NC(=O)c3ccc(N4CCC(CN5CCC6(CC5)Oc5cc7c(cc5CC6(F)F)C(=O)N(C5CCC(=O)NC5=O)C7=O)CC4)nn3)CC2)cc1Cl (stereo partly drawn) [Compound 18] , and I need its recorded inhibition at 0.1 µM.
57

I have this molecule here, COc1cc(O[C@H]2CC[C@H](NC(=O)c3ccc(N4CCC(O)(CN5CCC6(CC5)COc5c6ccc6c5C(=O)N(C5CCC(=O)NC5=O)C6=O)CC4)nn3)CC2)ccc1C#N (stereo partly drawn) [Compound 215] , and I need its recorded inhibition at 0.1 µM.
91
